test system: Plasmodium falciparum; test: Antimalarial activity against CQ-sensitive Plasmodium falciparum D6; format: functional, organism-based

[
  {
    "compound": "CCCCCCCOc1c(OC)cc(NC(C)CCCN)c2nc(C(C)(C)C)ccc12 (stereo not drawn)",
    "IC50": "0.02 µg/mL"
  },
  {
    "compound": "CCCCCCCCOc1c(OC)cc(NC(C)CCCN)c2nc(C(C)(C)C)ccc12 (stereo not drawn)",
    "IC50": "0.02 µg/mL"
  },
  {
    "compound": "CCCCCOc1c(OC)cc(NC(C)CCCN)c2nc(C(C)(C)C)ccc12 (stereo not drawn)",
    "IC50": "0.02 µg/mL"
  },
  {
    "compound": "Cc1c(Cl)ccc2cc(/C=C/C(=O)c3ccc(Br)s3)c(Cl)nc12",
    "IC50": "< 50 nM"
  },
  {
    "compound": "N=C(N=C(N)N)SCCCCNc1ccnc2cc(Cl)ccc12",
    "IC50": "610 nM"
  },
  {
    "compound": "Cc1c(Cl)ccc2cc(/C=C/C(=O)c3ccccc3Br)c(Cl)nc12",
    "IC50": "< 50 nM"
  },
  {
    "compound": "Cc1c(Cl)ccc2cc(/C=C/C(=O)c3cccc(Br)c3)c(Cl)nc12",
    "IC50": "< 50 nM"
  },
  {
    "compound": "Clc1ccc2c(N3CCN(CCCN4CCN(c5ccnc6cc(Cl)ccc56)CC4)CC3)ccnc2c1",
    "IC50": "0.7 nM"
  },
  {
    "compound": "CCCCCCOc1c(OC)cc(NC(C)CCCN)c2nc(C(C)(C)C)ccc12 (stereo not drawn)",
    "IC50": "0.02 µg/mL"
  },
  {
    "compound": "Cc1c(Cl)ccc2cc(/C=C/C(=O)c3ccc(Br)cc3)c(Cl)nc12",
    "IC50": "< 50 nM"
  },
  {
    "compound": "Clc1ccc2c(NCCCN3CCC(Nc4ccnc5cc(Cl)ccc45)CC3)ccnc2c1",
    "IC50": "0.15 nM"
  },
  {
    "compound": "Cc1c(Cl)ccc2cc(/C=C/C(=O)c3ccc(Cl)cc3)c(Cl)nc12",
    "IC50": "< 50 nM"
  },
  {
    "compound": "Cc1c(Cl)ccc2cc(/C=C/C(=O)c3csc(Cl)c3)c(Cl)nc12",
    "IC50": "< 50 nM"
  }
]
